- System: SK-MEL3
- test protocol: Anticancer activity against human SK-MEL3 cells assessed as reduction in cell viability incubated for 24 hrs by MTT assay
- Format: functional, cell-based
- measurement context: SK-MEL3, 24 h
Reported IC50 values are given for each entry in this list.
Express it in µM; write the number only.

Solved entries (count: 5):
COc1cc2ccc(=O)oc2cc1OC(=O)CCC(=O)O[C@@H]1O[C@@H]2C[C@]3(C)CC[C@H]4[C@H](C)CC[C@@H]([C@H]1C)[C@@]24OO3: 4.1
Cc1cc(=O)oc2cc(OC(=O)CCC(=O)O[C@@H]3O[C@@H]4C[C@]5(C)CC[C@H]6[C@H](C)CC[C@@H]([C@H]3C)[C@@]46OO5)ccc12: 2.6
O=c1cc(O)c2ccccc2o1 [4-HYDROXYCOUMARINS]: 2.1
O=c1oc2ccccc2cc1O [3-HYDROXYCOUMARIN]: 6.8
C[C@H]1[C@H](OC(=O)CCC(=O)Oc2cc(=O)oc3ccccc23)O[C@@H]2C[C@]3(C)CC[C@H]4[C@H](C)CC[C@@H]1[C@@]24OO3: 2.7

Please give measured IC50 of the following entry: `Cc1cc(=O)oc2cc(O)ccc12`
1.6
